meta.source: patent US8841312B2

targetOfAssay: Cdk4/CyclinD1 (Homo sapiens (Human))
experimentDescription: Cdk4 kinase inhibition assay with recombinant Cdk4/CyclinD1, Rb substrate, [33P]-ATP filter plate
testSettings: 25 μM ATP, read-out: Cdk 4 IC50
observable: IC50 (nM)

Here are 3 compounds together with their reported answers.
C[C@H]1CN(c2ccc(Nc3ncc4c5ccncc5n(C5CCC5)c4n3)nc2)CCN1 [Example 344] :: 16
CC1(C)CCC(n2c3cnccc3c3cnc(Nc4ccc(N5CCC(N6CCCC6)CC5)cn4)nc32)CC1 [Example 206] :: 14
C1=CCN(c2ccc(Nc3ncc4c5ccncc5n(C5CCCC5)c4n3)nn2)CC1 [Example 254] :: 22

I: C[C@H](CO)NC1CCN(c2ccc(Nc3ncc4c5ccncc5n(C5CCCC5)c4n3)nn2)CC1 [Example 444]
II: OCCN1CCN(c2ccc(Nc3ncc4c5ccnc(Cl)c5n(C5CCCC5)c4n3)nc2)CC1 [Example 166]
III: CN(C)C1CCN(c2ccc(Nc3ncc4c5ccncc5n([C@H]5CCC[C@H]5O)c4n3)nn2)CC1 [Example 355]
IV: c1cc2c3cnc(Nc4ccc(N5CCNCC5)cn4)nc3n(C3CCCC3)c2cn1 [Example 1]
Rank by IC50 (largest to smallest). Quick reminder: the answer is the labels in the order asked.
III, II, IV, I

----------
targetOfAssay: Cdk4/CyclinD1 (Homo sapiens (Human), UniProt P11802)
Sequence (P11802 whole entry): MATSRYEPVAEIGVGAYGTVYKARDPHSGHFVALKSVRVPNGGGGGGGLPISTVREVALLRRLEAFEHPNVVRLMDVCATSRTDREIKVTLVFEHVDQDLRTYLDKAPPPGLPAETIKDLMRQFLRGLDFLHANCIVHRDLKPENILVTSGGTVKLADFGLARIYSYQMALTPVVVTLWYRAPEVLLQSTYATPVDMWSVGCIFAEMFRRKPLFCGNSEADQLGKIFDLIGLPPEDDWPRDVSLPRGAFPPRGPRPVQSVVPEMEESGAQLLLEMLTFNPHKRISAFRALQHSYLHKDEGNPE
Sequence (P24385 whole entry partner): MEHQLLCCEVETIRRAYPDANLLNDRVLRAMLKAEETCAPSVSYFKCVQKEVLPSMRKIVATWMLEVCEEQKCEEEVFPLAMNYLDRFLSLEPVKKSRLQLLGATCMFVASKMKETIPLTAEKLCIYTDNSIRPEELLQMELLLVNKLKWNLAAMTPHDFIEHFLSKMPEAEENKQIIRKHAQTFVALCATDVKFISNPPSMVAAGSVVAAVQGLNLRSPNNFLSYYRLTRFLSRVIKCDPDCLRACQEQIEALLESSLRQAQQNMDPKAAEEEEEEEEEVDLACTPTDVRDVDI
experimentDescription: Cdk4 kinase inhibition assay with recombinant Cdk4/CyclinD1, Rb substrate, [33P]-ATP filter plate
testSettings: 25 μM ATP, read-out: Cdk 4 IC50
observable: IC50 (nM)

Here are 6 compounds together with their reported answers.
CNC1CCN(c2ccc(Nc3ncc4c5ccncc5n([C@@H]5CCOC5)c4n3)nc2)CC1 [Example 431] :: 12
CC1CN(c2ccc(Nc3ncc4c5ccncc5n(C5CCCC5)c4n3)nc2)CC(C)N1 (stereo not drawn) [Example 72] :: 2.3
Clc1nccc2c3cnc(Nc4ccc(N5CCNCC5)cn4)nc3n(C3CCCC3)c12 [Example 152] :: 2
c1ccc2c(c1)c1cnc(Nc3ccc(N4CCNCC4)cn3)nc1n2C1CCCC1 [Example 37] :: 4.3
C[C@@H]1CN(c2ccc(Nc3ncc4c5ccncc5n(C5CCCC5)c4n3)nc2)CCN1 [Example 61] :: 1.7
c1ncc2c(n1)c1cnc(Nc3ccc(N4CCNCC4)cn3)nc1n2C1CCCC1 [Example 59] :: 15

a: CNC1CCN(c2ccc(Nc3ncc4c5ccncc5n(C5CCC5)c4n3)nn2)CC1 [Example 434]
b: Cc1cc(N2CCNCC2)cnc1Nc1ncc2c3ccncc3n(C3CCCC3)c2n1 [Example 51]
c: C[C@H]1CN(c2ccc(Nc3ncc4c5ccncc5n(C5CCCC5)c4n3)nn2)CCN1 [Example 9]
d: CC1(C)CN(c2ccc(Nc3ncc4c5cc[nH]c(=O)c5n(C5CCCC5)c4n3)nn2)CCN1 [Example 130]
Rank by IC50 (largest to smallest). Quick reminder: the answer is the labels in the order asked.
b, d, a, c

1: C[C@@H](O)Cn1c2cnccc2c2cnc(Nc3ccc(N4CCC(N(C)C)CC4)cn3)nc21 [Example 357]
2: O[C@@H]1CCC[C@@H]1n1c2cnccc2c2cnc(Nc3ccc(N4CCNCC4)nn3)nc21 [Example 362]
Between the entries labelled 1 and 2 , which has a larger IC50 value on record? Lab log: write the label of the selected item as the result.
1

----------
targetOfAssay: Cdk4/CyclinD1 (Homo sapiens (Human), UniProt P11802)
experimentDescription: Cdk4 kinase inhibition assay with recombinant Cdk4/CyclinD1, Rb substrate, [33P]-ATP filter plate
testSettings: 25 μM ATP, read-out: Cdk 4 IC50
observable: IC50 (nM)

Here are 8 compounds together with their reported answers.
NC1CCN(c2ccc(Nc3ncc4c5ccccc5n(C5CCCC5)c4n3)nn2)CC1 [Example 308] :: 11
O=C(O)CNC1CCN(c2ccc(Nc3ncc4c5ccncc5n(C5CCCC5)c4n3)nc2)CC1 [Example 477] :: 2
c1ccc2c(c1)c1cnc(Nc3ccc(N4CCNCC4)cc3)nc1n2C1CCCCC1 [Example 21] :: 1
CCNC1CCN(c2ccc(Nc3ncc4c5ccncc5n(C5CCCC5)c4n3)nc2)CC1 [Example 464] :: 2
c1cc2c3cnc(Nc4ccc(N[C@@H]5CCNC5)nn4)nc3n(C3CCCC3)c2cn1 [Example 91] :: 6.1
CN(C)C1CCN(c2ccc(Nc3ncc4c5ccncc5n([C@H]5CCC[C@@H]5O)c4n3)nn2)CC1 [Example 405] :: 750
COc1cc(-c2ccc(Nc3ncc4c5ccncc5n(C5CCCC5)c4n3)nn2)ccn1 [Example 262] :: 32
NCC1CCCN(c2ccc(Nc3ncc4c5ccncc5n(C5CCCC5)c4n3)nn2)C1 (centres unmarked) [Example 95] :: 4.4

A: Oc1nccc2c3cnc(Nc4ccc(CN5CCNCC5)cn4)nc3n(C3CCCC3)c12 [Example 214]
B: CNC1CCN(c2ccc(Nc3ncc4c5ccncc5n(C[C@@H](C)O)c4n3)nc2)CC1 [Example 425]
Select the item whose IC50 value is smaller, choosing between A and B . Lab log: write the label of the selected item as the result.
A
(A: 14 nM, B: 73 nM)

P: c1cc2c3cnc(Nc4ccc(N5CCNCC5)cn4)nc3n(CC3CCCCC3)c2cn1 [Example 32]
Q: c1cc2c3cnc(Nc4ccc(N5CCNCC5)cn4)nc3n(C34CC5CC(CC(C5)C3)C4)c2cn1 [Example 26]
Select the item whose IC50 value is smaller, choosing between P and Q . Lab log: write the label of the selected item as the result.
Q
(Q: 1.6 nM, P: 13 nM)

P: C[C@@H](O)CNc1ccc(Nc2ncc3c4ccncc4n(C4CCCC4)c3n2)nn1 [Example 293]
Q: CNC1CCN(c2ccc(Nc3ncc4c5ccncc5n([C@H]5CCC[C@@H]5O)c4n3)nn2)CC1 [Example 406]
R: C[C@@H](CO)n1c2cnccc2c2cnc(Nc3ccc(N4CCNC(C)(C)C4)nn3)nc21 [Example 379]
S: CN(C)C1CCN(c2ccc(Nc3ncc4c5cc[nH]c(=O)c5n(C5CCCC5)c4n3)nc2)CC1 [Example 123]
Rank by IC50 (largest to smallest). Quick reminder: the answer is the labels in the order asked.
Q, S, R, P

I: CC[C@@H](C)n1c2cnccc2c2cnc(Nc3ccc(N4CCNCC4)cn3)nc21 [Example 320]
II: CNC1CCN(c2ccc(Nc3ncc4c5ccncc5n(C[C@H](C)O)c4n3)nn2)CC1 [Example 411]
Select the item whose IC50 value is smaller, choosing between I and II . Lab log: write the label of the selected item as the result.
I

----------
targetOfAssay: Cdk4/CyclinD1 (Homo sapiens (Human), UniProt P11802)
experimentDescription: Cdk4 kinase inhibition assay with recombinant Cdk4/CyclinD1, Rb substrate, [33P]-ATP filter plate
testSettings: 25 μM ATP, read-out: Cdk 4 IC50
observable: IC50 (nM)

Here are 5 molecules together with their reported answers.
c1cc2c3cnc(Nc4ccc(N5CCCNCC5)nn4)nc3n(C3CCCC3)c2cn1 [Example 117] :: 5.5
c1cc2c3cnc(Nc4cnc(NC5CCNCC5)cn4)nc3n(C3CCCC3)c2cn1 [Example 83] :: 12
O=C(O)CC1CCN(c2ccc(Nc3ncc4c5ccnc(F)c5n(C5CCCC5)c4n3)nc2)CC1 [Example 175] :: 37
C[C@H]1CNCCN1c1ccc(Nc2ncc3c4ccnc(F)c4n(C4CCCC4)c3n2)nc1 [Example 177] :: 5
C[C@@H](O)Cn1c2cnccc2c2cnc(Nc3ccc(N4CCNC(C)(C)C4)nn3)nc21 [Example 418] :: 112

P: CC1(C)CN(c2ccc(Nc3ncc4c5ccncc5n([C@@H]5CCNC5)c4n3)nc2)CCN1 [Example 338]
Q: C[C@H](O)CNC1CCN(c2ccc(Nc3ncc4c5ccncc5n(C5CCCC5)c4n3)nn2)CC1 [Example 439]
R: C[C@H](CO)n1c2cnccc2c2cnc(Nc3ccc(N4CC[C@@H](O)C4)cn3)nc21 [Example 382]
S: C[C@H](O)Cn1c2cnccc2c2cnc(Nc3ccc(N4CC[C@@H](O)C4)cn3)nc21 [Example 424]
T: CN1CCN(c2ccc(Nc3ncc4c5ccccc5n(C5CCCC5)c4n3)nc2)CC1 [Example 298]
Rank by IC50 (largest to smallest). Quick reminder: the answer is the labels in the order asked.
P, R, S, T, Q

I: Fc1cncc2c1c1cnc(Nc3ccc(N4CCNCC4)cn3)nc1n2C1CCCC1 [Example 58]
II: COCCn1c2cnccc2c2cnc(Nc3ccc(N4CCC(N(C)C)CC4)cn3)nc21 [Example 314]
III: C[C@@H]1CN(c2cnc(Nc3ncc4c5ccncc5n(C5CCCC5)c4n3)cn2)CCN1 [Example 80]
Sort the molecules on IC50; start with the lowest figure. Quick reminder: the answer is the labels in the order asked.
III, I, II
(III: 3.5 nM, I: 5.2 nM, II: 380 nM)

1: OCCN1CCN(c2ccc(Nc3ncc4c5ccncc5n(C5CCCC5)c4n3)nc2)CC1 [Example 191]
2: CN(C)C1CCN(c2ccc(Nc3ncc4c5ccncc5n([C@H]5CCOC5)c4n3)nn2)CC1 [Example 395]
Select the item whose IC50 value is smaller, choosing between 1 and 2 . Lab log: write the label of the selected item as the result.
1
(1: 4.4 nM, 2: 300 nM)
